Test: chemical genetic growth profiling, strain panel (AID 1159580);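 further: tested at 20 µM; growth read once vehicle control cultures reached saturation at 30 °C; 1 = growth at the plate median or of vehicle wells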
Assay Context: S. cerevisiae deletion strains, growth OD, locus YOR184W, strain ser1
Out of some 5,500 compounds screened, about 2,000 (36%) were called active. Another 18% or so got no clear call; they are omitted. No stated cut-off is given here; in the data, active means normalized growth mostly below about 0.91 (no sharp cut-off); inconclusive means no clear call, values can overlap the other calls; inactive means mostly above about 0.92. Some of the results follow.
Classes to choose from: active, inactive

The following compounds have reported results that may help.
{"Compound": "COc1ccc(-c2coc3c(OC)c(O)ccc3c2=O)cc1", "Answer Label": "inactive"}
{"Compound": "Cc1ccc(O)cc1", "Answer Label": "inactive"}
{"Compound": "COc1cc(OC)c2c(c1)OC(c1ccccc1)CC2=O (stereo not drawn)", "Answer Label": "inactive"}
{"Compound": "O=C1C[C@@H](c2ccc(O)cc2)Oc2cc(O)cc(O)c21", "Answer Label": "inactive"}
{"Compound": "O=C(/C=C/C=C/c1ccc2c(c1)OCO2)N1CCCCC1", "Answer Label": "active"}

stdin: Would you mind telling me which call this test gave O=C1CC(c2ccc(O)cc2)Oc2ccccc21 (stereo not drawn) ?
stdout: active

stdin: Would you mind telling me which call this test gave NC/C=C/C(=O)O ?
stdout: inactive

====

Test: chemical genetic growth profiling, strain panel (AID 1159580)
Assay Context: S. cerevisiae deletion strains, growth OD, locus YCL061C, strain MRC1
Screen size: about 5,500 compounds; about 2,000 (36%) were called active. Another 18% or so got no clear call; they are omitted. Rule as the data show it: active = normalized growth mostly below about 0.91 (no sharp cut-off); inconclusive = no clear call, values can overlap the other calls; inactive = mostly above about 0.92. The list shows a part of the results.
Classes to choose from: active, inactive

The following compounds have reported results that may help.
{"Compound": "C[C@@H]1O[C@@H](O[C@H]2[C@@H](Oc3cc(O)c4c(c3)O[C@H](c3ccc(O)cc3)CC4=O)O[C@H](CO)[C@@H](O)[C@@H]2O)[C@H](O)[C@H](O)[C@H]1O", "Answer Label": "inactive"}
{"Compound": "CN1CCCC(n2nc(Cc3ccc(Cl)cc3)c3ccccc3c2=O)CC1 (centres undefined)", "Answer Label": "inactive"}
{"Compound": "CCOC(=O)COc1ccc2c(c1)OC(C)(C)CC2=O", "Answer Label": "inactive"}
{"Compound": "N#Cc1cnn(-c2ccccc2)c1-n1cccc1", "Answer Label": "inactive"}
{"Compound": "Cc1ccc(O)cc1", "Answer Label": "inactive"}
{"Compound": "CCCCCCCC/C=C/CCCCCCCCOP(=O)([O-])OCC[N+](C)(C)C", "Answer Label": "active"}

stdin: Would you mind telling me which call this test gave CN=C(NC#N)NCCSCc1nc(N=C(N)N)cs1 ?
stdout: inactive

stdin: Would you mind telling me which call this test gave O=C1CC(c2ccc(O)c(O)c2)Oc2cc(O)cc(O)c21 (centres undefined) ?
stdout: inactive

stdin: Would you mind telling me which call this test gave CCCCCCCc1c(O)c2ccccc2[nH]c1=O ?
stdout: inactive

====

Test: chemical genetic growth profiling, strain panel (AID 1159580)
Assay Context: S. cerevisiae deletion strains, growth OD, locus YLR403W, strain SFP1
In all, about 5,500 compounds went through this assay and about 2,000 (36%) were called active. Not shown: some 18% with an inconclusive outcome. Rule as the data show it: active = normalized growth mostly below about 0.91 (no sharp cut-off); inconclusive = no clear call, values can overlap the other calls; inactive = mostly above about 0.92. The list shows a part of the results.
Classes to choose from: label 1 (active), label 0 (inactive)

{"Molecule": "Cn1c([N+](=O)[O-])cnc1/C=C(\\C#N)C(=O)Nc1ccc(F)cc1", "Answer Label": "label 1"}

Next, consider the following molecule.
stdin: Would you mind telling me which call this test gave NCCCN=c1ccc2c3c1c(O)c1c(O)ccc(=O)c1c3[nH]n2CCNCCO ?
stdout: label 0

====

Test: chemical genetic growth profiling, strain panel (AID 1159580);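 further: tested at 20 µM; growth read once vehicle control cultures reached saturation at 30 °C; 1 = growth at the plate median or of vehicle wells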
Assay Context: S. cerevisiae deletion strains, growth OD, locus YGR252W, strain gcn5, hits give low values
Among all 5,500 compounds or so, about 2,000 (36%) were called active. Inconclusive results (about 18%) are left out. The list shows a part of the results.
The label 1 is reserved for normalized growth strictly under 1; 0 covers values equal to or above it.

stdin: Find out if reported normalized growth for COc1cc2c(cc1OC)C(=O)C(CC1CCN(Cc3ccccc3)CC1)C2 (stereo not drawn) is less than 1
stdout: 1

====

Test: chemical genetic growth profiling, strain panel (AID 1159580);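 further: tested at 20 µM; growth read once vehicle control cultures reached saturation at 30 °C; 1 = growth at the plate median or of vehicle wells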
Assay Context: S. cerevisiae deletion strains, growth OD, locus YNR049C, strain mso1, hits give low values
Hit rate of the full screen: of about 5,500 compounds, about 2,000 (36%) were called active. Not shown: some 18% with an inconclusive outcome. Some of the results follow.
Readout Type: normalized growth
# output: bare number, no unit

{"Molecule": "CO[C@H]1C[C@H](O[C@H]2[C@H](C)[C@@H](OC3O[C@H](C)C[C@H](N(C)C)[C@H]3O)[C@@H](C)C[C@]3(CO3)C(=O)[C@H](C)[C@@H](O)[C@@H](C)[C@@H](C)OC(=O)[C@@H]2C)O[C@@H](C)[C@@H]1O (some centres undefined)", "Readout Type": "normalized growth", "Readout Number": 0.997}
{"Molecule": "CNc1ccccc1C(=O)N1CCc2c([nH]c3ccccc23)C1=O", "Readout Type": "normalized growth", "Readout Number": 0.989}
{"Molecule": "CC1(C)C2CC[C@]3(C)C(C(=O)C=C4[C@@H]5C[C@@](C)(C(=O)O)CC[C@]5(C)CC[C@]43C)[C@@]2(C)CC[C@@H]1OC(=O)CCC(=O)O (some centres undefined)", "Readout Type": "normalized growth", "Readout Number": 0.983}
{"Molecule": "COc1cc2c(cc1OC)C(=O)C(CC1CCN(Cc3ccccc3)CC1)C2 (centres undefined)", "Readout Type": "normalized growth", "Readout Number": 1.01}
{"Molecule": "O=C(O)c1cc(=O)c2ccc(Cl)cc2[nH]1", "Readout Type": "normalized growth", "Readout Number": 1}

Recorded normalized growth (molecule CN1CCc2cc3c(cc2C1O)OCO3 (centres undefined) ): 1

Recorded normalized growth (molecule COc1ccc(-c2cc(=O)c3c(O)cc(OC)c(OC)c3o2)c(OC)c1 ): 1.03

Recorded normalized growth (molecule C=CCc1ccc2c(c1)OCO2 ): 1.02

Recorded normalized growth (molecule COc1cc(O)c2c(=O)cc(C)oc2c1CC=C(C)C ): 0.996

Recorded normalized growth (molecule CCc1ccc(CCOc2ccc(CC3SC(=O)NC3=O)cc2)nc1 (centres undefined) ): 1.01

Recorded normalized growth (molecule O=C(O)C1CC([C@@H]2CCCCN2)CN2CCCCC12 (some centres undefined) ): 0.978

Recorded normalized growth (molecule O=C(O)COc1cc(Cl)c(Cl)cc1Cl ): 0.988

Recorded normalized growth (molecule C[CH2][Hg][S]c1ccccc1C(=O)O ): 0.0543

Recorded normalized growth (molecule CC(=O)OCC(CCn1cnc2cnc(N)nc21)COC(C)=O ): 0.983

Recorded normalized growth (molecule COc1ccc2c(c1)OC[C@@H](Cc1ccc(OC)c(OC)c1)[C@@H]2O ): 0.99

Recorded normalized growth (molecule COC(=O)[C@@H]1C(O)CC[C@H]2CN3CCc4c([nH]c5ccccc45)[C@@H]3C[C@@H]21 (some centres undefined) ): 1.01

Recorded normalized growth (molecule COC(=O)C1[C@H]2C[C@H]3c4[nH]c5ccccc5c4CCN3C[C@@H]2CC[C@@H]1O (some centres undefined) ): 0.97

Recorded normalized growth (molecule Cn1cc[nH]c1=S ): 0.998

Recorded normalized growth (molecule CCCCOc1ccc(OCCCN2CCOCC2)cc1 ): 0.978

Recorded normalized growth (molecule Cc1cc(=O)c2c(O)cc(O)c(C)c2o1 ): 0.969

Recorded normalized growth (molecule Cc1ccc2c(c1)CC[C@H]1CC(=O)CC[C@]21C ): 1

Recorded normalized growth (molecule c1ccc(CC2=NCCN2)cc1 ): 0.996

Recorded normalized growth (molecule CC[C@H]1OC(=O)C[C@@H](O)[C@H](C)[C@@H](O[C@@H]2O[C@H](C)[C@@H](O[C@H]3C[C@@](C)(O)[C@@H](O)[C@H](C)O3)[C@H](N(C)C)[C@H]2O)[C@@H](CC=O)C[C@@H](C)C(=O)/C=C/C(C)=C/[C@@H]1CO[C@@H]1O[C@H](C)[C@@H](O)[C@@H](OC)[C@H]1OC ): 0.99

Recorded normalized growth (molecule CC(=O)O[C@H]1C(=O)[C@@]2(C)C([C@H](OC(=O)c3ccccc3)[C@]3(O)C[C@H](O)C(C)=C1C3(C)C)[C@]1(OC(C)=O)CO[C@@H]1C[C@@H]2O (some centres undefined) ): 1.01

Recorded normalized growth (molecule c1ccc(CN(CC2=NCCN2)c2ccccc2)cc1 ): 1.01

Recorded normalized growth (molecule OCC(O)Cc1ccc2c(c1)OCO2 (centres undefined) ): 0.989

Recorded normalized growth (molecule COC1C(O)C(O)C(O)[C@@H](O)C1O (some centres undefined) ): 0.979

Recorded normalized growth (molecule O=C(Cc1ccccc1)NO ): 0.983

====

Test: chemical genetic growth profiling, strain panel (AID 1159580);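 further: tested at 20 µM; growth read once vehicle control cultures reached saturation at 30 °C; 1 = growth at the plate median or of vehicle wells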
Assay Context: S. cerevisiae deletion strains, growth OD, locus YNL322C, strain KRE1, hits give low values
About 2,000 (36%) of roughly 5,500 compounds were called active. Not shown: some 18% with an inconclusive outcome. This is one part of the list.
# reported normalized growth; entries follow
# output: bare number, no unit

{"Molecule": "CN(C)/C=C(\\C#N)C(=O)Nc1ccc(F)c(Cl)c1", "Readout Number": 1.02}
{"Molecule": "N#C/C(=C\\c1ccc(O)c(O)c1)C(=O)Nc1ccccc1", "Readout Number": 0.989}
{"Molecule": "CC(=O)/C(=C\\Nc1ncccn1)S(=O)(=O)c1ccc(Cl)cc1", "Readout Number": 0.946}

Recorded normalized growth (molecule CNC1(C)C2CCC(C2)C1(C)C (configuration not stated) ): 0.978

Hey, just so you know, these numbers are from PubChem BioAssay AID1159580.
